List of GI50 values.
# System: SNB-75 CNS
# Experiment: NCI tumour cell line growth inhibition, 48 h

// known answers, use as guide
[
  {
    "Compound": "CS(=O)(=O)c1ccc(-c2[nH]c3ccc(F)cc3c2/C=N/NC(N)=S)cc1",
    "Parameter": "GI50",
    "Result": "1.85 µM"
  },
  {
    "Compound": "O=C(Nc1ccc(Cl)cc1F)c1cc(Cl)ccc1O",
    "Parameter": "GI50",
    "Result": "0.456 µM"
  },
  {
    "Compound": "O=C(c1ccncc1)N1CCN(C2=NS(=O)(=O)c3ccccc3N2c2ccccc2)CC1",
    "Parameter": "GI50",
    "Result": "15.5 µM"
  },
  {
    "Compound": "COc1ccc2c(c1)c(-c1nc(-c3cn(C)c4ncccc34)cs1)cn2CCCCN1CCOCC1",
    "Parameter": "GI50",
    "Result": "0.873 µM"
  },
  {
    "Compound": "Cc1csc(-c2ccc3c(c2)COC3(CCCN(C)C)c2ccc(F)cc2)c1 (stereo unspecified)",
    "Parameter": "GI50",
    "Result": "1.2 µM"
  },
  {
    "Compound": "O=C(O)CP(=O)(c1ccccc1)c1ccccc1.O=C(O)CP(=O)(c1ccccc1)c1ccccc1.[Cd]",
    "Parameter": "GI50",
    "Result": "16 µM"
  },
  {
    "Compound": "CCC[CH2][Ge]([CH2]CCC)([CH2]CCC)[O]C(=O)C(OC(C)=O)c1ccccc1 (stereo unspecified)",
    "Parameter": "GI50",
    "Result": "0.973 µM"
  },
  {
    "Compound": "COc1cc([N+](=O)[O-])c(OC)cc1-c1nc2n(c1/C(N)=N/C(=N)N)CCS2",
    "Parameter": "GI50",
    "Result": "6.76 µM"
  },
  {
    "Compound": "CNc1ccc(C(=O)CC(O)CCC(C)C2OC(=O)CC(O)CC(=O)CC(O)CC(O)CC(O)CC(O)CC3(O)CC(O)C(C(=O)NCCc4ccccn4)C(CC(OC4OC(C)C(O)C(N)C4O)/C=C/C=C/C=C/C=C\\C=C/C=C/C=C/C2C)O3)cc1 (stereo unspecified)",
    "Parameter": "GI50",
    "Result": "> 50 µM"
  },
  {
    "Compound": "COc1ccc2cc(C(=O)/C=C/c3ccco3)ccc2c1",
    "Parameter": "GI50",
    "Result": "> 100 µM"
  }
]

Reported GI50 for N#C/C(=C\c1ccc([N+](=O)[O-])s1)c1nc2cc(Br)ccc2s1 : what is it? 0.355 µM

Could you tell me which GI50 is on file for CCCC(=O)Nc1ncnc2c1ncn2C1OC2COP(=O)(O)OC2C1OC(=O)CCC (stereo unspecified) ? > 1000 µM

Look up GI50: CN1CCN(CCCN2c3ccccc3Sc3ccc(C(F)(F)F)cc32)CC1 6.4 µM

* * *

# Test system: SK-MEL-2 melanoma
# Experiment: NCI tumour cell line growth inhibition, 48 h; in the data active = GI50 below about 0.43 µM; inactive = the rest
Outcome (select one): TRUE = active, FALSE = inactive

Reference set, count: 4
[
  {
    "Compound": "Cc1ccc(C(CC(=O)c2ccccc2)C(C(=O)c2ccccc2)C(c2ccc(C)cc2)C2C(=O)NC(=S)NC2=O)cc1 (stereo unspecified)",
    "Assigned category": "FALSE"
  },
  {
    "Compound": "O=C(Nc1ccc(Cl)cc1F)c1cc(Cl)ccc1O",
    "Assigned category": "TRUE"
  },
  {
    "Compound": "[O]=[W](=[O])([OH])[OH]",
    "Assigned category": "FALSE"
  },
  {
    "Compound": "CN1CCN(CCCN2c3ccccc3Sc3ccc(C(F)(F)F)cc32)CC1",
    "Assigned category": "FALSE"
  }
]

Field: outcome | Entry: O=C(Nc1ccc(O)c(NS(=O)(=O)c2ccc(F)cc2)c1)c1ccc(-c2ccccc2)cc1 FALSE

Identify the outcome logged in this assay for the compound shown: Cc1nc2sc(C(=O)Nc3cccc(Cl)c3C)c(N)c2cc1C(=O)c1ccccc1 TRUE

For Cc1csc(-c2ccc3c(c2)COC3(CCCN(C)C)c2ccc(F)cc2)c1 (stereo unspecified) , which call appears in the assay record? FALSE

Hey, what did the test say about COC(=O)c1cc(NC(=O)CN(CCN(CC(=O)O)CC(=O)Nc2ccc(O)c(C(=O)OC)c2)CC(=O)O)ccc1O ? FALSE

Please share the test call associated with O=C(Nc1cccc(-n2cc(-c3ccncc3)c(-c3ccc(O)c(Cl)c3)n2)c1)c1ccc(N2CCOCC2)c(C(F)(F)F)c1 . FALSE

Record lookup: outcome of this test for C=CCCC(O)c1ccc(CCCCCCCCCCC)o1 (stereo unspecified) ? FALSE
